Please respond with reported GI50 for every item in the list.
- Tested on: SN12C
- assay_procedure: NCI tumour cell line growth inhibition, 48 h
Activity calls are given as the source filed them. Cut-off read from the data, not from the text of the source: active = GI50 up to about 1.1 µM and inactive = higher.

Prompt line: Request the reported GI50 associated with CCOC(=O)C(Cc1ccc(N(CCCl)CCCl)cc1)NC(=O)CCCN1C(=O)CN=C(c2ccccc2)c2cc(Cl)ccc21 (stereo not drawn)
Response line: 4.43 µM (inactive)

Prompt line: Could you do the same for CC12CC(=O)C3C(C(=O)C1)C32C (stereo not drawn) , please?
Response line: > 100 µM (inactive)

Prompt line: // same read-out, input: CC(=O)O[C@H]1/C(=C/c2ccc(N(C)C)cc2)C[C@H]2[C@@H]3CC=C4C[C@@H](N5CCCC5)CC[C@]4(C)[C@H]3CC[C@]12C
Response line: > 100 µM (inactive)

Prompt line: Now consider C/C=C(\N=C=S)C(=O)OC1C(COC(C)=O)OC([C@]2(O)CC(=O)C(N)=C(C(=O)O)C2=O)C(O)C1OC1CC(OC)C(O)([C@@H](C)OC(=O)[C@@H](C)CC)C(C)O1 (stereo partly drawn) and answer again.
Response line: 15 µM (inactive)

Prompt line: Okay, and CCOC(=O)c1nc2ccccc2nc1Oc1ccc(C(=O)OC)cc1 ?
Response line: > 100 µM (inactive)

Prompt line: Now this one: CN(C)CCNC(=O)c1cccc2c(=O)c3ccccc3oc12
Response line: 24.3 µM (inactive)

Prompt line: Next up: Cc1sc2nc3n(sc4nc5sc(C)c(C)c5c(=O)n43)c(=O)c2c1C
Response line: > 100 µM (inactive)

Prompt line: What about COc1ccc(C(Cl)=C(c2ccc(OCCN(C)C)cc2)c2ccc(OCCN(C)C)cc2)cc1 ?
Response line: 2.65 µM (inactive)

* * *

- System: SK-MEL-5
- assay_procedure: NCI tumour cell line growth inhibition, 48 h
Activity calls are given as the source filed them. Rule as the data show it: active = GI50 up to about 1.1 µM and inactive = higher.
Could you please pick one outcome from this set? True = active, False = inactive

Prompt line: Check the results log: what was the call for CC1CC(=O)Nc2ccccc2N1C(=O)C1CC1 (centres undefined) ?
Response line: False

Prompt line: // repeat for N#Cc1c(N)c2c(c(-c3ccccc3)c1-c1ccccc1)C(=O)N(O)C2=O and report
Response line: False

Prompt line: Thanks! And Nc1nc(SCCC/C=C/I)nc2c1ncn2C1OC(COP(=O)(O)O)C(O)C1O (centres undefined) ?
Response line: False

Prompt line: Quick one: COc1ccc2cc(CN3CCC(C4CCNCC4)CC3)ccc2c1
Response line: False

Prompt line: Same read-out for CCCCCOc1ccc(/C=N\c2ccc(CCc3ccc(/N=C/c4ccc(OCCCCC)cc4)cc3)cc2)cc1 ?
Response line: False

Prompt line: Same thing, different molecule: Clc1ccc(OCc2nnc(CCCCCCCCc3nnc(COc4ccc(Cl)cc4)n3Nc3ccccc3)n2Nc2ccccc2)cc1
Response line: True

Prompt line: Please give the result for O=P1(N(CCCl)CCCl)Oc2c(Cl)cc(Cl)c(Cl)c2Cc2c(Cl)c(Cl)cc(Cl)c2O1 too.
Response line: False

Prompt line: Same lookup for O=C1CCCCCCC2=C1C(Sc1ccccc1)CC2 (centres undefined) , please.
Response line: False

Prompt line: Try this molecule too: C[C@H]1CC[C@@H]2[C@@H](C)[C@H]3[C@H](C[C@H]4[C@@H]5CC=C6C[C@@H](O)CC[C@]6(C)[C@H]5CC[C@]34C)N2C1
Response line: False

Prompt line: Try this molecule next: O=c1c2cc(Br)ccc2[nH]c(=S)n1-c1ccccc1
Response line: False

Prompt line: Quick one: COc1cc(C2c3cc4c(cc3[C@@H](Nc3ccccc3)C3COC[C@H]23)OCO4)cc(OC)c1O (some centres undefined)
Response line: False

Prompt line: Here is the next molecule: Nn1c(S)nnc1C12CC3CC(CC(C3)C1)C2
Response line: False

Prompt line: Cool, now CC(CO)(CO)/N=C/c1cc(I)cc(I)c1O
Response line: False

Prompt line: Try O=C1OCC/C1=N/O next.
Response line: False
